Test system: Human PBMCs
assay details: Inhibition of mitogen (PWM)-induced lymphocyte proliferation of PBMCs
Assay type: cell-based
settings: PBMC, PWM 2.5 μg/ml, 48 hrs, tritiated thymidine, read-out: IC50, PBMCs stimulated with PWM
pIC50: −log10 of the molar value.
Measured pIC50 accompanies every entry in the list below.
assay metric: pIC50

• C=CC[C@H](C(=O)NO)[C@@H](CC(C)C)C(=O)N[C@@H](Cc1ccccc1)C(=O)OCC = 5.32
• C=CC[C@H](C(=O)NO)[C@@H](CC(C)C)C(=O)N[C@@H](Cc1ccccc1)C(=O)OC = 5.33
• C=CC[C@H](C(=O)NO)[C@@H](CC(C)C)C(=O)N[C@@H](Cc1ccccc1)C(=O)OC(C)C = 5.62
